These data points were gathered from ChEMBL document CHEMBL1140991.

Quick reference for Activity among some compounds
System: brain
assay-overview: Antiprion activity against Scrapie prion protein-infected mouse brain cells assessed as remaining PrP-res level at 100 uM after 4 days by Western blotting relative to control
Assay type: tissue-based
Peptide text beside a SMILES is read from it.
Units required after the number.

Known Activity results, listed for orientation:
compound	Activity
C[C@H](NC(=O)[C@H](C)NC(=O)[C@@H]1CCCN1)C(N)=O (H-Pro-Ala-Ala-NH2)	51%
C[C@H](NC(=O)CNC(=O)[C@H](C)NC(=O)[C@@H](C)N)C(=O)N[C@@H](C)C(=O)N[C@@H](C)C(=O)N1CCC[C@H]1C(N)=O	206%
C[C@H](NC(=O)CNC(=O)[C@H](C)NC(=O)[C@H](C)NC(=O)[C@H](C)NC(=O)[C@H](C)NC(=O)[C@@H]1CCCN1C(=O)[C@H](C)NC(=O)[C@@H](C)N)C(N)=O	66%
C[C@H](NC(=O)[C@H](C)NC(=O)[C@H](C)NC(=O)[C@H](C)NC(=O)[C@@H]1CCCN1C(=O)[C@H](C)NC(=O)[C@@H](C)N)C(=O)NCC(N)=O	128%

Note to self: Activity recorded for NC(=O)CNC(=O)[C@@H]1CCCN1C(=O)[C@@H]1CCCN1 (H-Pro-Pro-Gly-NH2) was 48%

Short answer for C[C@H](NC(=O)[C@@H]1CCCN1C(=O)[C@H](C)NC(=O)CN)C(=O)O (H-GAPA-OH) : Activity was 47%
